Provenance of the data: paper PMC6747051

Exercise: state measured viability at 0.98 µg/mL for each of the compounds provided.
System: influenza A virus
TEST PROTOCOL: microbe, parasite or virus in culture
EXPERIMENTAL SETUP: MDCK, 48 h, read-out: Cell survival rate

Kindly note the recorded viability at 0.98 µg/mL for N#C[C@H](O[C@@H]1O[C@H](CO[C@@H]2O[C@H](CO)[C@@H](O)[C@H](O)[C@H]2O)[C@@H](O)[C@H](O)[C@H]1O)c1ccccc1 , which is 26.2%

In plain terms, C[C@@H]([C@H](O)c1ccccc1)N(C)C has a documented viability at 0.98 µg/mL of 57.3%

Consider CN[C@@H](C)[C@@H](O)c1ccccc1 . Its measured viability at 0.98 µg/mL is 54.7%

// field: viability at 0.98 µg/mL; key: CN[C@@H](C)[C@H](O)c1ccccc1 ; value = 51.6%
